The origin of these recorded values is ChEMBL document CHEMBL4689842.

test system: Fibroblast; test: Multiplex assay against human fibroblast; format: toxicity, cell-based; conditions: 12 h, 10 µM, compound concentration 10 uM, replicate 2
Parameter: Population Pyknosed Nuclei (%). Scope: all listed entries.
Write it as a number; the unit % goes unstated.

Reference set (3 entries):
- MOLECULE: "COc1ccc(-c2ccc3c(N4CCOCC4)nc(N4C[C@@H](C)O[C@@H](C)C4)nc3n2)cc1CO"
  UOM: "%"
  OBS_VALUE: 0
- MOLECULE: "COc1cc(N2CCN(C)CC2)ccc1Nc1ncc2c(n1)N(C)c1ccccc1C(=O)N2C"
  UOM: "%"
  OBS_VALUE: 23
- MOLECULE: "CNc1cc(Oc2cc(C(=O)Nc3cc(N4CCN(C)CC4)cc(C(F)(F)F)c3)ccc2C)ncn1"
  UOM: "%"
  OBS_VALUE: 61

# context switch: different molecule, same Population Pyknosed Nuclei (%)
Requested field: Population Pyknosed Nuclei (%). Item: CN(C)C(=O)C(CCN1CCC(O)(c2ccc(Cl)cc2)CC1)(c1ccccc1)c1ccccc1.Cl [LOPERAMIDE HYDROCHLORIDE] 43

---

system: HEK-293T; assay: Multiplex assay against HEK293T; format: toxicity, cell-based; conditions: human, 24 h, 1 µM, compound concentration 1 uM, replicate 2
ENDPOINT_NAME: Population Mitochondria Different-Phenotype (%)
Answer format: numeric, % implied, no suffix.

Worked cases, answers included:
- TEST_SMILES: "Cc1cn(-c2cc(NC(=O)c3ccc(C)c(Nc4nccc(-c5cccnc5)n4)c3)cc(C(F)(F)F)c2)cn1"
  UOM: "%"
  OBS_VALUE: 23
- TEST_SMILES: "NC(=O)c1cccc(-c2cc(Nc3ccc(OC(F)(F)F)cc3)ncn2)c1"
  UOM: "%"
  OBS_VALUE: 2
- TEST_SMILES: "S=C(NCCCc1c[nH]cn1)NCCCN(Cc1ccc(Cl)c(Cl)c1)c1ccc(Br)cn1"
  UOM: "%"
  OBS_VALUE: 17
- TEST_SMILES: "Cc1ccc(C(=O)Nc2cccc(C(F)(F)F)c2)cc1Nc1nc(-c2cccnc2)nc2c1cnn2C"
  UOM: "%"
  OBS_VALUE: 64
- TEST_SMILES: "CCCS(=O)(=O)c1nc(NC2CC2)cc(-c2ccc3c(ccn3C3CC(C)(C)NC(C)(C)C3)c2)n1"
  UOM: "%"
  OBS_VALUE: 66

May I ask what Population Mitochondria Different-Phenotype (%) has been recorded for CCc1cccc(CC)c1NC(=O)c1nn(C)c2c1CCc1cnc(Nc3ccc(C(=O)NC4CCN(C)CC4)cc3OC(F)(F)F)nc1-2 ? 52

Quick one: Population Mitochondria Different-Phenotype (%) for CCNc1cc(N[C@H]2CC[C@H](O)CC2)nc(Nc2ccc3c(ccn3Cc3ccccc3)c2)n1 ? 14

I would be grateful if you could share the reported Population Mitochondria Different-Phenotype (%) for O=C(Cc1ccc(-c2ccc(OCCN3CCOCC3)cc2)cn1)NCc1ccccc1 . 25

---

tested on: Fibroblast; assay: Multiplex assay against human fibroblast; format: toxicity, cell-based; details: 12 h, 1 µM, compound concentration 1 uM, replicate 2
ENDPOINT_NAME: Population Hoechst High Intensity Objects (%)
Give the value in % but do not write % after it.

Previously resolved entries follow.
- TEST_SMILES: "CCCS(=O)(=O)c1nc(NC2CC2)cc(-c2ccc3c(ccn3C3CC(C)(C)NC(C)(C)C3)c2)n1"
  UOM: "%"
  OBS_VALUE: 5
- TEST_SMILES: "O=C1N/C(=N/c2ccccc2F)S/C1=C\\c1ccc(C(=O)O)cc1"
  UOM: "%"
  OBS_VALUE: 8
- TEST_SMILES: "O=C1NC(=O)C(c2cnc3ccccn23)=C1c1cn2c3c(cc(F)cc13)CN(C(=O)N1CCCCC1)CC2"
  UOM: "%"
  OBS_VALUE: 12
- TEST_SMILES: "CCN1CCN(Cc2ccc(Nc3ncc(F)c(-c4cc(F)c5nc(C)n(C(C)C)c5c4)n3)nc2)CC1.CS(=O)(=O)O"
  UOM: "%"
  OBS_VALUE: 6

Any idea what Population Hoechst High Intensity Objects (%) came out for CN1CCN(C(=O)C(C)(C)c2ccc(C(=O)Nc3cn4cc(-c5cc(C(C)(C)C)cc(C(C)(C)C)c5)ccc4n3)cc2)CC1 on Fibroblast? 26

# returns recorded Population Hoechst High Intensity Objects (%) (system: Fibroblast) for Cc1cc(C)c(S(=O)(=O)N(Cc2ccc(-c3cccc(S(C)(=O)=O)c3)cc2)Cc2ccc(C(F)(F)F)o2)c(C)c1 6

Hello, I am looking for reported Population Hoechst High Intensity Objects (%) with Fibroblast for CCn1cc(-c2ccnc3[nH]c(-c4cccc(CN(C)C)c4)cc23)c(-c2ccc(NC(=O)N(C)C)cc2)n1 . Could you help? 46

---

tested on: U2OS; assay: Multiplex assay against U2OS; format: toxicity, cell-based; conditions: human, 24 h, 10 µM, compound concentration 10 uM, replicate 1
Decide using Population Tubulin-Different-Phenotype (%) alone. Strictly below 20%: fulfilled. Equal to or above 20%: not fulfilled.

Known results for compounds:
- COMPOUND: "CNC(=O)c1ccc(Nc2nc(OC3CCCC3)c3c(-c4ccc5nc(C)oc5c4)c[nH]c3n2)c(OC)c1"
  CATEGORY: "not fulfilled"
- COMPOUND: "COc1cc(N2CCN(C)CC2)ccc1Nc1ncc2c(n1)N(C)c1ccccc1C(=O)N2C"
  CATEGORY: "not fulfilled"
- COMPOUND: "CCc1cccc(CC)c1NC(=O)c1nn(C)c2c1CCc1cnc(Nc3ccc(N4CCN(C)CC4)cc3OC)nc1-2"
  CATEGORY: "not fulfilled"
- COMPOUND: "CCCS(=O)(=O)Nc1ccc(F)c(C(=O)c2c[nH]c3ncc(Cl)cc23)c1F [PLX-4720]"
  CATEGORY: "not fulfilled"
- COMPOUND: "O=C(Nc1ccc(-n2nc(-c3cccnc3)cc2C(F)(F)F)cn1)c1ccc(-c2ccccc2)c(F)c1 [BI 2049]"
  CATEGORY: "fulfilled"

Decide: Population Tubulin-Different-Phenotype (%) of Cc1cn(-c2cc(NC(=O)c3ccc(C)c(Nc4nccc(-c5cccnc5)n4)c3)cc(C(F)(F)F)c2)cn1 [NILOTINIB] strictly below 20%? not fulfilled

Lab note: confirm whether the reported Population Tubulin-Different-Phenotype (%) for this compound is below 20%, equality not counting. compound: S=C(NCCCc1c[nH]cn1)NCCCN(Cc1ccc(Cl)c(Cl)c1)c1ccc(Br)cn1 not fulfilled

A record lists C=C1/C(=C\C=C2/CCC[C@]3(C)[C@@H]([C@H](C)/C=C/[C@H](C)C(C)C)CC[C@@H]23)C[C@@H](O)C[C@@H]1O [DOXERCALCIFEROL] . Is its Population Tubulin-Different-Phenotype (%) below 20%? fulfilled

Please state whether Population Tubulin-Different-Phenotype (%) is below 20% for CNc1cc(Oc2cc(C(=O)Nc3cc(N4CCN(C)CC4)cc(C(F)(F)F)c3)ccc2C)ncn1 not fulfilled

---

test system: U2OS; test: Multiplex assay against U2OS; format: toxicity, cell-based; details: human, 48 h, 10 µM, compound concentration 10 uM, replicate 1
The following molecules are shown together with reported Population Healthy Nuclei (%) values.
Numeric only. Scale: %

Please review the following examples before continuing.
- MOLECULE: "O=C(Nc1ccc(Cl)cc1)Nc1cccc(-c2cccc(N3CCCC3)n2)c1"
  EXPERIMENTAL_TARGET: "U2OS"
  Population Healthy Nuclei (%): 33
- MOLECULE: "CN1CCC(=C2c3ccccc3CC(=O)c3sccc32)CC1.O=C(O)/C=C/C(=O)O [KETOTIFEN FUMARATE]"
  EXPERIMENTAL_TARGET: "U2OS"
  Population Healthy Nuclei (%): 60

Please state recorded Population Healthy Nuclei (%) (tested on U2OS) of COCC(=O)NC/C=C/c1ccc2ncnc(Nc3ccc(Oc4ccc(C)nc4)c(C)c3)c2c1 44

Param readout = Population Healthy Nuclei (%); param system = U2OS; param query = CN1C2CCC1CC(OC(c1ccc(F)cc1)c1ccc(F)cc1)C2.Cl (configuration not stated) ; response: value 63

Checklist item: Population Healthy Nuclei (%) tested on U2OS, entry Cl.Oc1ccc2c3c1O[C@H]1c4[nH]c5c(c4C[C@@]4(O)[C@@H](C2)N(CC2CC2)CC[C@]314)C[C@@]1(O)[C@H]2Cc3ccc(O)c4c3[C@@]1(CCN2CC1CC1)[C@H]5O4 , value? 89

What reported Population Healthy Nuclei (%) corresponds to C=C1/C(=C\C=C2/CCC[C@]3(C)[C@@H]([C@H](C)/C=C/[C@H](C)C(C)C)CC[C@@H]23)C[C@@H](O)C[C@@H]1O on U2OS? 16

Any idea what Population Healthy Nuclei (%) came out for O=C(Nc1ccc(-n2nc(-c3cccnc3)cc2C(F)(F)F)cn1)c1ccc(-c2ccccc2)c(F)c1 on U2OS? 74
